measured-target: UniProt:P0DTD1
assay-summary: biochemical
condition-summary: 20 nM protease; read-out: SARS-CoV-2 3CLpro IC50
measurement-kind: log10 of IC50 (log10 of the value in nM)
Log10 applied to IC50; unit prior to transform: nM.

molecule	numeric-readout
CC(C)C[C@H](NC(=O)OCc1cc(F)c(F)cc1F)C(=O)N[C@@H](C[C@@H]1CCNC1=O)C(O)S(=O)(=O)O (some centres unmarked) [NK01-48]	1.96
CC(C)C[C@H](NC(=O)OCc1ccc2ccccc2c1)C(=O)N[C@@H](C[C@@H]1CCNC1=O)C(O)S(=O)(=O)O (some centres unmarked) [EB56]	1.70
O=C(N[C@@H](CC1CC1)C(=O)N[C@@H](C[C@@H]1CCNC1=O)C(O)S(=O)(=O)O)OCc1ccccc1 (some centres unmarked) [NK01-14]	1.34
Cc1ncsc1C(=O)Oc1cncc(Cl)c1 [Z91]	1.49
O=C(Oc1cncc(Cl)c1)c1ccco1 [T71]	1.04

Data request: Which value of log10 of IC50 has been reported for O=C(N[C@@H](CC1CC1)C(=O)N[C@@H](C[C@@H]1CCNC1=O)C(O)S(=O)(=O)O)OCc1ccccc1Cl (some centres unmarked) [NK01-69] in the records?
Data returned: 1.38

Data request: Proceed to O=C(N[C@@H](CC1CCCCC1)C(=O)N[C@@H](C[C@@H]1CCNC1=O)C(O)S(=O)(=O)O)OCc1cccc(Cl)c1 (some centres unmarked) [EB48]
Data returned: 2.30

* * *

measured-target: SARS-CoV-2 3CL protease (Severe acute respiratory syndrome coronavirus 2)
Assay type: biochemical
Design: unit not given here
condition-summary: Conc 10 µM; average response of dose-response curve
yes (1) means recorded Avg is 20 or above; no (0) means it is below 20.

Sample answers from the record:
compound	group-label
CC1(C)C(=O)Nc2ccc(C(=O)CCl)cc21 [Z2160878465]	no (0)
Cc1ccccc1CN1CCN(C(=O)CCl)CC1 [Z208155076]	no (0)
OCCc1cnc(S)nc1 [Z2064274637]	no (0)

Consider the additional compound presented here.
Data request: Assess whether reported Avg for N#C/C=C/S(=O)(=O)c1ccc(Cl)cc1 [Z1649581806] sits at 20 or higher.
Data returned: no (0)

* * *

measured-target: SARS-CoV-2 3CL protease (Severe acute respiratory syndrome coronavirus 2, UniProt P0DTD1)
Format: biochemical
Design: unit not given here
condition-summary: Conc 20 µM; mean response (inhibition) of dose-response curve
y means recorded Avg is 40 or above; n means it is below 40.

Sample answers from the record:
smiles-entry	group-label
O=C(CCl)COc1ccc(Cl)cc1	y
Cc1cc(C(=O)CCl)c(C)n1-c1nccs1	y
CN(c1ccc(C(=O)CCl)cc1)S(C)(=O)=O	y
C=CS(=O)(=O)c1nc2ccccc2s1	y
NC(=O)c1csc(C(=O)CCl)c1	n
Cc1cc(C(=O)CCl)c(C)n1-c1ncn[nH]1	y
O=C(CCl)c1ccc(F)c(C(=O)CCl)c1	n
Cc1ccc(CNC(=O)n2ccnc2)cc1	n

Data request: Assess whether reported Avg for O=C(CCl)N1CCN(Cc2ccsc2)CC1 sits at 40 or higher.
Data returned: n

* * *

Quick reference: normalized activity, dose-response curve (Figure S16) of the listed items.
measured-target: SARS-CoV-2 3CL protease (Severe acute respiratory syndrome coronavirus 2)
assay-summary: biochemical
condition-summary: Concentration of inhibitor (nM) -0.40824
Output: the number by itself.

compound	numeric-readout
O=C(N[C@@H](CC1CCCCC1)C(=O)N[C@@H](C[C@@H]1CCNC1=O)C(O)S(=O)(=O)O)OCc1cccc(Cl)c1 (stereo partly drawn)	100
CC(C)C[C@H](NC(=O)OCc1ccccc1Cl)C(=O)N[C@@H](C[C@@H]1CCNC1=O)C(O)S(=O)(=O)O (stereo partly drawn)	100

Data request: Which value of normalized activity, dose-response curve (Figure S16) has been reported for CC(C)C[C@H](NC(=O)OCc1cccc2ccccc12)C(=O)N[C@@H](C[C@@H]1CCNC1=O)C(O)S(=O)(=O)O (stereo partly drawn) in the records?
Data returned: 100

Data request: Proceed to CC(C)C[C@H](NC(=O)OCc1ccc2ccccc2c1)C(=O)N[C@@H](C[C@@H]1CCNC1=O)C(O)S(=O)(=O)O (stereo partly drawn)
Data returned: 100

Data request: Proceed to O=C(N[C@@H](CC1CCCCC1)C(=O)N[C@@H](C[C@@H]1CCNC1=O)C(O)S(=O)(=O)O)OCc1ccccc1 (stereo partly drawn)
Data returned: 100

Data request: Proceed to CC(C)C[C@H](NC(=O)OCc1cccc(Cl)c1)C(=O)N[C@@H](C[C@@H]1CCNC1=O)C(O)S(=O)(=O)O (stereo partly drawn)
Data returned: 100
